From: patent US8653092B2

Listed here are compounds together with their documented log10(IC50).
Molecular target: PI3K delta (Homo sapiens (Human), UniProt O00329)
Sequence (O00329 other isoform, or with tags, fused parts or gaps linker GGGGGG): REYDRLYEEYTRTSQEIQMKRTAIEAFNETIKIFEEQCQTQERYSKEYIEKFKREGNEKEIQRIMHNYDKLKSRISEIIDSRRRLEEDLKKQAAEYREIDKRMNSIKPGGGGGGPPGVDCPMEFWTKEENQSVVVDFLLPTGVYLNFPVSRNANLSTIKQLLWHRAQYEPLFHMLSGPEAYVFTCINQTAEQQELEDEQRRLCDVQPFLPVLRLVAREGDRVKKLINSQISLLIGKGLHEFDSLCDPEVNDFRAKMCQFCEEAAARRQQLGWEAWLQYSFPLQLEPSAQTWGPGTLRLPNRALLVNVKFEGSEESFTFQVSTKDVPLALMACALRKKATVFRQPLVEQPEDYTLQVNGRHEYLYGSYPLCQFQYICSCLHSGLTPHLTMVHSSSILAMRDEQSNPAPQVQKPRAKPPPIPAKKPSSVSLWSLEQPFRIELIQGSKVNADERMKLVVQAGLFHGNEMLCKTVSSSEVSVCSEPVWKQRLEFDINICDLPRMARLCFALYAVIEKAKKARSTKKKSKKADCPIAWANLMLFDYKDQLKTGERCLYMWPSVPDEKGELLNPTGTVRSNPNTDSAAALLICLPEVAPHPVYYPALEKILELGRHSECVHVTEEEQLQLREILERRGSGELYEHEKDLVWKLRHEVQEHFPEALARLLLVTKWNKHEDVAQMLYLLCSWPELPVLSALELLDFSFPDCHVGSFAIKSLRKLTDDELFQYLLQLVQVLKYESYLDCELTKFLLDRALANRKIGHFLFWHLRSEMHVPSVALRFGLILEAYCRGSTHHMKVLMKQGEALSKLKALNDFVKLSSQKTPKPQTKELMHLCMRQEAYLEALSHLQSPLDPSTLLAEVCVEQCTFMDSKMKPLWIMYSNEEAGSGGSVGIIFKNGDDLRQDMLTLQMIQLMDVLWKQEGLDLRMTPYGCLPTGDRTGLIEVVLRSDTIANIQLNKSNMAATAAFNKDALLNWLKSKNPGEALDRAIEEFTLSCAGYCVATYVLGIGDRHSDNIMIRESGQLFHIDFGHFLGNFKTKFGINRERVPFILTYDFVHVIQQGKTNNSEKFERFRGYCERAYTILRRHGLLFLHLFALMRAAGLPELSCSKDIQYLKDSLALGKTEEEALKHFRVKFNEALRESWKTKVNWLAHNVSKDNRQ
Experiment: Enzymatic PI3K delta isoform inhibition (lipid kinase, Kinase-Glo luminescence)
Type: biochemical
Settings: enzymatic assay
Quick note: numbers are log10 of IC50, with nM as the unit.

// below: answered compounds
INSERT INTO measurements (chem_smiles, system, data_value) VALUES
  ('COc1ncc(N2CCc3ncnc(N[C@H]4CCN(C(=O)c5cnco5)C4)c3C2)cc1C(F)(F)F', 'PI3K delta (Homo sapiens (Human), UniProt O00329)', 0.60),
  ('COc1ncc(N2CCc3ncnc(O[C@H]4CCN(C(=O)c5cn(C)cn5)C4)c3C2)cc1C', 'PI3K delta (Homo sapiens (Human), UniProt O00329)', 1.68),
  ('COc1ncc(N2CCc3ncnc(O[C@H]4CCN(C(=O)c5ncoc5C)C4)c3C2)cc1C', 'PI3K delta (Homo sapiens (Human), UniProt O00329)', 1.60),
  ('COc1ncc(N2CCc3ncnc(O[C@H]4CCN(C(=O)c5cn[nH]c5)C4)c3C2)cc1C(F)(F)F', 'PI3K delta (Homo sapiens (Human), UniProt O00329)', 1.53),
  ('COc1ncc(N2CCc3ncnc(O[C@H]4CCN(C(=O)c5ccncc5)C4)c3C2)cc1C(F)(F)F', 'PI3K delta (Homo sapiens (Human), UniProt O00329)', 1.40);

// below: log10(IC50) requested for another compound
Look up and report log10(IC50), with PI3K delta (Homo sapiens (Human), UniProt O00329) as system, for COc1ncc(N2CCc3ncnc(O[C@H]4CCN(C(=O)C5CCOCC5)C4)c3C2)c(OC)n1
0.95
